# measuredOn: TARP γ8 dependent AMPA receptor (GluA1o-g8 fusion channel) (Homo sapiens (Human), UniProt P42261+Q8WXS5)
# Sequence (P42261 other isoform, or with tags, fused parts or gaps): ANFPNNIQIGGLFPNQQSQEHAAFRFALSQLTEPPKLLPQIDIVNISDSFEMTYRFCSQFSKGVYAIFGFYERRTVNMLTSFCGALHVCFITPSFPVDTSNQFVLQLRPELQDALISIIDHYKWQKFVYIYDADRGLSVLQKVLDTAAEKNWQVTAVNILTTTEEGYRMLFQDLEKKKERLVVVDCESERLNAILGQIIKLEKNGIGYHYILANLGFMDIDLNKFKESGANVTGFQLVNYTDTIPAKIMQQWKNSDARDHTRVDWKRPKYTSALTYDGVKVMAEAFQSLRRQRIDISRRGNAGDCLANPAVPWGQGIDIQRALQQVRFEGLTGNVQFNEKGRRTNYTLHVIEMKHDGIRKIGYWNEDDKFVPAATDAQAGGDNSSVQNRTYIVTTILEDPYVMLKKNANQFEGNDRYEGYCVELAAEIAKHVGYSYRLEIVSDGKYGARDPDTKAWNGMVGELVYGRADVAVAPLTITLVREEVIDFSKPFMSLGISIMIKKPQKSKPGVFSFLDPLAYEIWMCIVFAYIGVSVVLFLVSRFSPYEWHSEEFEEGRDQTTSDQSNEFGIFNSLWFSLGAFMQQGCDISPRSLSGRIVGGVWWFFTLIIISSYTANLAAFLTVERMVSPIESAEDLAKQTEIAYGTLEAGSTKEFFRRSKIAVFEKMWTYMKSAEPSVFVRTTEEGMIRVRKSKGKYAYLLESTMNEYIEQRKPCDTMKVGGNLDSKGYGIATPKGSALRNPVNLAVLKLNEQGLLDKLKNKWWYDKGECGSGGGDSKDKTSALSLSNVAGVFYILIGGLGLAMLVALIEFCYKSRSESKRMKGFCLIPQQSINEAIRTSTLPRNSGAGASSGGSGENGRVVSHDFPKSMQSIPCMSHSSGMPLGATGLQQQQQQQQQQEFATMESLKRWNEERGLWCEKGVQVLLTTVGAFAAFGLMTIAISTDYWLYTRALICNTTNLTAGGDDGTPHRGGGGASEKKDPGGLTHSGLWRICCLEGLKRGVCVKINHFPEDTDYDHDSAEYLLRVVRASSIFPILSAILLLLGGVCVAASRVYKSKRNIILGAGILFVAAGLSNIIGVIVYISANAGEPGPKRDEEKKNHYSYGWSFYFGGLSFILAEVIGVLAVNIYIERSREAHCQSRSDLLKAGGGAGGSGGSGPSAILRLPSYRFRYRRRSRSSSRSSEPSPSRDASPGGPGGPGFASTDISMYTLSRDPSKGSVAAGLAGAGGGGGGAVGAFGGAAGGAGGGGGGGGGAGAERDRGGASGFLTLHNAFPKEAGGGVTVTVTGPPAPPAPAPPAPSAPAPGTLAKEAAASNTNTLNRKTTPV
# procedureDetails: Calcium flux assay (FLIPR), HEK293 cells expressing GRIA1o-CACNG8 fusion
# Assay type: cell-based
# settings: inhibition of calcium flux after 15 μM glutamate, read-out: GluR1-γ8 pIC50 (converted)
Form field: IC50 (one value per entry).
Include the unit right after the number.

Example compounds with recorded IC50:
Cc1c(C(=O)NC2CC2)cccc1-c1ccc2[nH]c(=O)[nH]c2c1; 3980 nM
Cc1noc(-c2cccc(-c3ccc4[nH]c(=O)[nH]c4c3)c2C)n1; 39.8 nM
O=c1[nH]c2ccc(-c3c(Cl)cccc3OCC3CC3(F)F)cc2[nH]1 (racemic); 20 nM
Cc1c(-c2ccc3[nH]c(=O)sc3c2)cccc1-c1nc(C2CC2)no1; 3980 nM
COc1cnccc1-c1cccc(Cl)c1-c1ccc2[nH]c(=O)[nH]c2c1; 1000 nM

Lookup result for Cc1ccc(C#N)cc1-c1ccc2[nH]c(=O)[nH]c2c1 ; measured IC50: 1580 nM

So, O=c1[nH]c2ccc(-c3ccccc3Cc3ccccc3)cc2[nH]1 ? Its IC50 was 316 nM

Measured IC50, COC1CCN(c2cccc(-c3ccc4[nH]c(=O)sc4c3)c2Cl)CC1 : 2510 nM

response.value for Cc1c(-c2ccc3[nH]c(=O)[nH]c3c2)cccc1-c1nnco1 (field: IC50) = 501 nM

====

# measuredOn: TARP γ8 dependent AMPA receptor (GluA1o-g8 fusion channel) (Homo sapiens (Human), UniProt P42261+Q8WXS5)
# procedureDetails: Calcium flux assay (FLIPR), HEK293 cells expressing GRIA1o-CACNG8 fusion
# Format: cell-based
# settings: inhibition of calcium flux after 15 μM glutamate, read-out: GluR1-γ8 pIC50 (converted)
recordedEndpoint: log10(IC50) (log10 of the value in nM)
Values are log10 of IC50 in nM.

Record excerpt, results attached:
CN1CCN(Cc2cccc(Cl)c2-c2ccc3[nH]c(=O)[nH]c3c2)CC1; 3.90
COc1ccc(-c2cccc(CC#N)c2-c2ccc3[nH]c(=O)[nH]c3c2)cc1; 2.50
O=c1[nH]c2ccc(-c3c(Cl)ccc(Cl)c3Cl)cc2[nH]1; 1.00
Cc1c(C(=O)N(C)C)cccc1-c1ccc2[nH]c(=O)[nH]c2c1; 3.50

Documented log10(IC50) of N#CCc1ccc(Cl)c(Cl)c1-c1ccc2[nH]c(=O)[nH]c2c1 : 0.90

O=c1[nH]c2ccc(-c3ccccc3-c3ccccc3)cc2[nH]1 yielded log10(IC50) of 2.00

====

# measuredOn: TARP γ8 dependent AMPA receptor (GluA1o-g8 fusion channel) (Homo sapiens (Human), UniProt P42261+Q8WXS5)
# procedureDetails: Calcium flux assay (FLIPR), HEK293 cells expressing GRIA1o-CACNG8 fusion
# Assay type: cell-based
# settings: inhibition of calcium flux after 15 μM glutamate, read-out: GluR1-γ8 pIC50 (converted)
# From the text: This assay was used to test compounds for their ability to inhibit TARP γ8 dependent AMPA receptor activity. An in vitro assay was used to determine the potency of test compounds as inhibitors of the glutamate response of the channel formed by GluA1o-g8. To ensure a 1:1 stoichiometry of GluA1o and g8 subunits in the expressed channel, a fusion of the cDNAs for GRIA1o and CACNG8 was used. […] The fluorescence in each well was normalized to the fluorescence of negative and positive control wells. […]
Binary call on IC50 with cut-off 300 nM: strictly below means class 1, and equality or higher means class 0.

Examples with answers:
O=c1[nH]c2ccc(-c3c(Cl)cccc3OC3CC3)cc2[nH]1 [Example 90]; class 1
COc1cncc(-c2cccc(Cl)c2-c2ccc3[nH]c(=O)[nH]c3c2)c1 [Example 168]; class 0
O=c1[nH]c2ccc(-c3cccc(OCC4CC4(F)F)c3Cl)cc2[nH]1 (racemic) [Example 111]; class 1
Cc1ccccc1-c1ccc2[nH]c(=O)[nH]c2c1 [Example 3]; class 0
COc1cccc(OC(C)(C)C)c1-c1ccc2[nH]c(=O)[nH]c2c1 [Example 117]; class 0

Next up:
Record N#CCc1cccc(-c2ccc3[nH]c(=O)[nH]c3c2)c1Cl [Example 130] : is its IC50 strictly below 300 nM? class 0

Where do the numbers come from? From patent US10611730B2.
